- Assay notes: recombinant UMI read abundance after kanamycin selection (control-corrected) (log10(CPM+1)); higher = more efficient recombination; extreme values may be limits of the assay; sequences stand for … in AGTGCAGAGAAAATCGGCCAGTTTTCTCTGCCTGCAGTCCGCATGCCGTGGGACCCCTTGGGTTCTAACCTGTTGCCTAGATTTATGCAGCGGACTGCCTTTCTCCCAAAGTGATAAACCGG…AGGTTGGTTTCACT; site = the 11-nt donor
Ranges used to classify recombinant UMI read abundance (log10): class 0 = under 0.004, class 1 = from 0.004 up to 0.4, class 2 = 0.4 and over

GCTCACCCATGGACCGGTTTTCCCGGTAATCCGTATTTGCT (site GCTCACCCTAG) : class 0
CGCAGTACATGGACCGGTTTTCCCGGTAATCCGTATTTGCT (site CGCCGTACTAG) : class 0
AGATTAGCATGGACCGGTTTTCCCGGTAATCCGTATTTGAT (site AGATTAGCTAT) : class 2
TAATGACCATGGACCGGTTTTCCCGGTAATCCGTATTTGGG (site TAATGAGCTCC) : class 1
CGTTTGACATGGACCGGTTTTCCCGGTAATCCGTATTTGAG (site CGTTGGACTCT) : class 1

Task: Could you place CTCCCTACATGGACCGGTTTTCCCGGTAATCCGTATTTGAC (site CTCCCTACTAT) in its proper category? Many thanks.
Output: class 2

Task: Could you place CTCCCTGCATGGACCGGTTTTCCCGGTAATCCGTATTTGAG (site CTCCCTACTCT) in its proper category? Many thanks.
Output: class 2

Task: Could you place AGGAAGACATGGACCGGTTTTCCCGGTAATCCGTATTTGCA (site AAGAACACTTG) in its proper category? Many thanks.
Output: class 0

Task: Could you place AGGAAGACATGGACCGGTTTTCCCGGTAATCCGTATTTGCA (site AGGTACACTTG) in its proper category? Many thanks.
Output: class 2

Task: Could you place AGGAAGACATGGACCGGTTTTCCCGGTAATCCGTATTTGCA (site AGGTAGACTGG) in its proper category? Many thanks.
Output: class 0

Task: Could you place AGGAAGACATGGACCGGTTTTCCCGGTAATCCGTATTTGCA (site AAGAAGACTTT) in its proper category? Many thanks.
Output: class 1

Task: Could you place ACATCTACATGGACCGGTTTTCCCGGTAATCCGTATTTGTA (site ACATCTACTCA) in its proper category? Many thanks.
Output: class 1

Task: Could you place GCCAAGCCATGGACCGGTTTTCCCGGTAATCCGTATTTGGG (site GCTAAGCCTCC) in its proper category? Many thanks.
Output: class 0

Task: Could you place CCGTTTACATGGACCGGTTTTCCCGGTAATCCGTATTTGCC (site CCGTTTACTCG) in its proper category? Many thanks.
Output: class 0

Task: Could you place GTATGGACATGGACCGGTTTTCCCGGTAATCCGTATTTGTA (site GTATGGACTTA) in its proper category? Many thanks.
Output: class 2

Task: Could you place GTAAGAACATGGACCGGTTTTCCCGGTAATCCGTATTTGGC (site GTCAGAACTGC) in its proper category? Many thanks.
Output: class 0

Task: Could you place GGATAGTCATGGACCGGTTTTCCCGGTAATCCGTATTTGCC (site GGATAGGCTGG) in its proper category? Many thanks.
Output: class 0

Task: Could you place GTATGCACATGGACCGGTTTTCCCGGTAATCCGTATTTGAA (site GTATGCACTTT) in its proper category? Many thanks.
Output: class 2

Task: Could you place TGTCCTACATGGACCGGTTTTCCCGGTAATCCGTATTTGTG (site TGTCCTACTCA) in its proper category? Many thanks.
Output: class 1

Task: Could you place CCGTTAGCATGGACCGGTTTTCCCGGTAATCCGTATTTGTG (site CCGTCAGCTCA) in its proper category? Many thanks.
Output: class 1

Task: Could you place TAAAGTCCATGGACCGGTTTTCCCGGTAATCCGTATTTGTG (site TAAAGTCCTTA) in its proper category? Many thanks.
Output: class 1

Task: Could you place GAATAGACATGGACCGGTTTTCCCGGTAATCCGTATTTGCC (site GGATAGACTGG) in its proper category? Many thanks.
Output: class 2

Task: Could you place CCCGGTCCATGGACCGGTTTTCCCGGTAATCCGTATTTGCA (site CCCGGTCCTTG) in its proper category? Many thanks.
Output: class 0

Task: Could you place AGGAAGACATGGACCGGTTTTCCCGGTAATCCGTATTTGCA (site AGTAACACTTG) in its proper category? Many thanks.
Output: class 1

Task: Could you place CAAGATACATGGACCGGTTTTCCCGGTAATCCGTATTTGGT (site CAAGATACTAC) in its proper category? Many thanks.
Output: class 2

Task: Could you place AGTCTTACATGGACCGGTTTTCCCGGTAATCCGTATTTGCG (site AGTCTTACTCG) in its proper category? Many thanks.
Output: class 2

Task: Could you place CGGTCCGCATGGACCGGTTTTCCCGGTAATCCGTATTTGCG (site CGGTCCGCTCG) in its proper category? Many thanks.
Output: class 1

====

- Assay notes: recombinant UMI read abundance after kanamycin selection (control-corrected) (log10(CPM+1)); higher = more efficient recombination; extreme values may be limits of the assay; sequences stand for … in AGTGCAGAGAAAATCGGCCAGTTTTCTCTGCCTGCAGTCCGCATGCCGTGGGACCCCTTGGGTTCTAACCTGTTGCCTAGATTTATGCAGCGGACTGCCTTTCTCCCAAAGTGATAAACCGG…AGGTTGGTTTCACT; site = the 11-nt donor
Reported metric: recombinant UMI read abundance (log10)

These recorded examples may help you get a feel for the data.
AGCGGATCATGGACCGGTTTTCCCGGTAATCCGTATTTGAG (site AGCGGATCTCT) : 2.33
ACTAGTGCATGGACCGGTTTTCCCGGTAATCCGTATTTGGT (site ACTAGTCCTAC) : 0.0182
CCAGGTGCATGGACCGGTTTTCCCGGTAATCCGTATTTGAT (site CCGGGTGCTAT) : 1.47
ACATCTCCATGGACCGGTTTTCCCGGTAATCCGTATTTGTG (site ACATCTCCTCA) : 0.00967
CTCCCTACATGGACCGGTTTTCCCGGTAATCCGTATTTGAG (site CTCCTTACTCT) : 0.00587

Looking up CGTCTTTCATGGACCGGTTTTCCCGGTAATCCGTATTTGCA (site CGTCTTTCTTG) , I found its recombinant UMI read abundance (log10) recorded as 0

Looking up CACGGGCCATGGACCGGTTTTCCCGGTAATCCGTATTTGTT (site CACGGTCCTAA) , I found its recombinant UMI read abundance (log10) recorded as 0.00819

====

- Assay notes: recombinant barcode read abundance after kanamycin selection (control-corrected) (log10(CPM+1)); higher = more efficient recombination; sequences stand for … in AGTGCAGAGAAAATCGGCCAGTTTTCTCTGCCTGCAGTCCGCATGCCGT…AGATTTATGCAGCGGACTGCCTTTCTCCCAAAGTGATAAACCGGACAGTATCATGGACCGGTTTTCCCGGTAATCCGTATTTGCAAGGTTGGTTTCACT; site = the 11-nt target
Reported metric: recombinant barcode read abundance (log10)
Format: numeric value only, no unit, no commentary.

These recorded examples may help you get a feel for the data.
CGAGAACCTTGGGTTCTAACCTGTTGCCT (site AGAGAACCTAG) : 0.0999
TGTAGAGCTTGGGTTCTAACCTGTTGCAG (site TGTTGAGCTCT) : 0.0298

Looking up AGGTCCTCTTGGGTTCTAACCTGTTGCGT (site AGGTCCTCTAA) , I found its recombinant barcode read abundance (log10) recorded as 0.295

Looking up AGGTGTGCTTGGGTTCTAACCTGTTGCCT (site AGGTGTGCTAG) , I found its recombinant barcode read abundance (log10) recorded as 1.19

Looking up TCTAGAGCTTGGGTTCTAACCTGTTGCCT (site TCTAGATCTAG) , I found its recombinant barcode read abundance (log10) recorded as 0.339

====

Entries and their recombinant barcode read abundance (log10) values follow.
- Assay notes: recombinant barcode read abundance after kanamycin selection (control-corrected) (log10(CPM+1)); higher = more efficient recombination; sequences stand for … in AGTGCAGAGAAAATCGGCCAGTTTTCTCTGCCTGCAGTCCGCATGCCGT…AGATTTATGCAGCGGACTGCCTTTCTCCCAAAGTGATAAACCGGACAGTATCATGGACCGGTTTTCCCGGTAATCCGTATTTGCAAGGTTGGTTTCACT; site = the 11-nt target

ATCGCTTCTTGGGTTCTAACCTGTTGCCT (site AACGCTTCTAG) : 0.246

Looking up GGGAATGCTTGGGTTCTAACCTGTTGCCT (site GGGAACGCTAG) , I found its recombinant barcode read abundance (log10) recorded as 0.108

Looking up TGACTAGCTTGGGTTCTAACCTGTTGCCT (site TGTCTAGCTAG) , I found its recombinant barcode read abundance (log10) recorded as 0.0443

Looking up TATTATACTTGGGTTCTAACCTGTTGCTT (site TATTATACTAT) , I found its recombinant barcode read abundance (log10) recorded as 0.34

Looking up TCACGTCCTTGGGTTCTAACCTGTTGCGT (site TCACGTCCTAC) , I found its recombinant barcode read abundance (log10) recorded as 1.3

Looking up AACATGCCTTGGGTTCTAACCTGTTGCTT (site AACATGCCTAA) , I found its recombinant barcode read abundance (log10) recorded as 0.478

Looking up GTGTCGCCTTGGGTTCTAACCTGTTGCCT (site GTGTCGCCTAG) , I found its recombinant barcode read abundance (log10) recorded as 0.845

Looking up CCTACTCCTTGGGTTCTAACCTGTTGCCT (site CCTGCTCCTAA) , I found its recombinant barcode read abundance (log10) recorded as 0.0634
